# credit: paper PMC7556730

system: cytochrome P450 enzymes (CYPs); test: Microsomal incubations with benoxacor in the presence of NADPH; type: in vitro ADME, Sprague Dawley rats; settings: male, Sprague-Dawley, rat, liver microsomes

MOLECULE | microsomal CLint
CC1COc2ccccc2N1C(=O)C(Cl)Cl (stereo not shown) | 1110 µL/min/mg

---

system: cytochrome P450 enzymes (CYPs); experiment: Microsomal incubations with benoxacor in the presence of NADPH; type: in vitro ADME, Sprague Dawley rats; details: female, Sprague-Dawley, rat, liver microsomes

COMPOUND | microsomal CLint, µL/min/mg
CC1COc2ccccc2N1C(=O)C(Cl)Cl (stereo not shown) | 1280

---

tested on: glutathione S-transferases (GSTs); assay: Cytosolic incubations with benoxacor in the presence of GSH; assay type: in vitro ADME, Sprague Dawley rats; details: female, Sprague-Dawley, rat, liver cytosol

MOLECULE | microsomal CLint
CC1COc2ccccc2N1C(=O)C(Cl)Cl (stereo not shown) | 280 µL/min/mg

---

tested on: glutathione S-transferases (GSTs); assay: Cytosolic incubations with benoxacor in the presence of GSH; type: in vitro ADME, Sprague Dawley rats; conditions: male, Sprague-Dawley, rat, liver cytosol
ATTRIBUTE_MEASURED: microsomal CLint

COMPOUND | MEASURED_RESULT
CC1COc2ccccc2N1C(=O)C(Cl)Cl (stereo not shown) | 440 µL/min/mg
